For each record, write down the corresponding IC50.
- target.under.test: Aurora Kinase A (Homo sapiens, UniProt O14965)
- Construct: full length Aurora A (1-403 amino acids); purchased Carna Biosciences 05-101
- Sequence (O14965 whole entry, the tested form may be a part): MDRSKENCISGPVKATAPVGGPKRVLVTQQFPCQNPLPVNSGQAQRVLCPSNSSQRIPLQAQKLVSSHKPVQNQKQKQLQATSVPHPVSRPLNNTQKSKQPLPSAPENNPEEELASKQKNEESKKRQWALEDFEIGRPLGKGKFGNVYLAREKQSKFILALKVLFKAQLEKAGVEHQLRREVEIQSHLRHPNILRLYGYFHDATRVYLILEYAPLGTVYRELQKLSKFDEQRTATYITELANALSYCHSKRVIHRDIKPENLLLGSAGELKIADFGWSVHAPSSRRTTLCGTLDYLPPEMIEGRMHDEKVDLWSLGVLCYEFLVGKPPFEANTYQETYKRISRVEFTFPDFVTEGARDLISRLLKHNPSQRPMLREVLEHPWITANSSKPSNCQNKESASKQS
- test.protocol: Biochemical enzyme assay for Aurora A activity (Caliper LC3000 / Desktop Profiler mobility shift)
- assay.setup: GST-Aurora A, 15 μM ATP, 90 min at 25° C.; LC3000 or Desktop Profiler; read-out: Aurora Kinase A IC50

[
  {
    "structure.notation": "O=C(Nc1ccc(Nc2ccnc3[nH]c(=O)ccc23)cc1)c1ccc(C(F)(F)F)cc1",
    "target.under.test": "Aurora Kinase A (Homo sapiens, UniProt O14965)",
    "IC50": "> 1000 nM"
  },
  {
    "structure.notation": "CC(C)(C)C(=O)Nc1nccc(Cl)c1C(=O)c1ccccc1",
    "target.under.test": "Aurora Kinase A (Homo sapiens, UniProt O14965)",
    "IC50": "1 to 300 nM"
  },
  {
    "structure.notation": "O=C(Nc1ccc(Nc2ccnc3[nH]c(=O)cc(O)c23)cc1)c1ccccc1",
    "target.under.test": "Aurora Kinase A (Homo sapiens, UniProt O14965)",
    "IC50": "1 to 300 nM"
  }
]

Requested field: IC50. Item: "O=C(Nc1ccc(Nc2ccnc3[nH]c(=O)c(C(=O)NC[C@H](O)CO)c(-c4ccccc4)c23)cc1)c1ccc(F)c(F)c1" > 1000 nM
